Test system: SF-539
Assay: Growth inhibition of human SF539 cells at 10 uM by sulforhodamine B assay
Assay type: functional, cell-based
Activity calls are given as the source filed them. The calls are words filed in the database; no cut-off is given here.
Measured endpoint: growth inhibition (GI)

Some solved entries appear below for comparison.
{"columns": ["Compound smiles", "growth inhibition (GI)"],
 "data": [
  ["COc1cc(-c2nc(-c3ccccc3)c(-c3ccccc3)n2Cc2ccccc2)ccc1OC1CCCCC1", "Active"],
  ["COc1ccc(-c2nc(-c3ccccc3)c(-c3ccccc3)[nH]2)cc1OC1CCCC1", "Active"],
  ["C#CCn1c(-c2ccc(OC3CCCC3)c(OC)c2)nc(-c2ccccc2)c1-c1ccccc1", "Active"],
  ["COc1ccc(-c2nc(-c3ccccn3)c(-c3ccccn3)n2CC(C)C)cc1OC1CCCC1", "Active"],
  ["COc1cc(-c2nc(-c3ccccc3)c(-c3ccccc3)n2C2CCCCC2)ccc1OC1CCCC1", "Active"],
  ["C#CCn1c(-c2ccc(OC)c(OC3CCCC3)c2)nc(-c2ccccc2)c1-c1ccccc1", "Active"],
  ["COc1ccc(-c2nc(-c3ccccc3)c(-c3ccccc3)n2C2CC2)cc1OC1CCCCC1", "Active"],
  ["COc1cc(-c2nc(-c3ccccc3)c(-c3ccccc3)[nH]2)ccc1OC1CCCC1", "Active"],
  ["COc1ccc(-c2nc(-c3ccccc3)c(-c3ccccc3)n2C2CC2)cc1OC1CCCC1", "Active"]
]}

Let's switch to this compound now.
[in] Please give the documented growth inhibition (GI) of "CCCCCCn1c(-c2ccc(OC)c(OC3CCCC3)c2)nc(-c2ccccc2)c1-c1ccccc1"
[out] Active

###

System: NCI-H522
Test: Growth inhibition of human NCI-H522 cells at 10 uM by sulforhodamine B assay
Assay type: functional, cell-based
The source made the active and inactive calls. The rule behind the calls is not given here.
Measured endpoint: growth inhibition (GI)

Some solved entries appear below for comparison.
{"columns": ["Compound smiles", "growth inhibition (GI)"],
 "data": [
  ["COc1cc(-c2nc(-c3ccccc3)c(-c3ccccc3)n2C2CCCCC2)ccc1OC1CCCC1", "Active"],
  ["COc1cc(-c2nc(-c3ccccc3)c(-c3ccccc3)[nH]2)ccc1OC1CCCC1", "Active"],
  ["COc1ccc(-c2nc(-c3ccccc3)c(-c3ccccc3)n2C2CC2)cc1OC1CCCCC1", "Active"],
  ["C#CCn1c(-c2ccc(OC)c(OC3CCCC3)c2)nc(-c2ccccc2)c1-c1ccccc1", "Active"],
  ["COc1ccc(-c2nc(-c3ccccn3)c(-c3ccccn3)n2CC(C)C)cc1OC1CCCC1", "Active"]
]}

[in] Please give the documented growth inhibition (GI) of "COc1ccc(-c2nc(-c3ccccc3)c(-c3ccccc3)n2C2CC2)cc1OC1CCCC1"
[out] Active

[in] Please give the documented growth inhibition (GI) of "COc1ccc(-c2nc(-c3ccccc3)c(-c3ccccc3)[nH]2)cc1OC1CCCC1"
[out] Active

[in] Please give the documented growth inhibition (GI) of "COc1cc(-c2nc(-c3ccccc3)c(-c3ccccc3)n2Cc2ccccc2)ccc1OC1CCCCC1"
[out] Active

[in] Please give the documented growth inhibition (GI) of "CCCCCCn1c(-c2ccc(OC)c(OC3CCCC3)c2)nc(-c2ccccc2)c1-c1ccccc1"
[out] Active

[in] Please give the documented growth inhibition (GI) of "C#CCn1c(-c2ccc(OC3CCCC3)c(OC)c2)nc(-c2ccccc2)c1-c1ccccc1"
[out] Active

###

Tested on: NCI-H226
Experiment: Growth inhibition of human NCI-H226 cells at 10 uM by sulforhodamine B assay
Format: functional, cell-based
Active and inactive are the calls of the source. No cut-off for these calls is given here.
Measured endpoint: growth inhibition (GI)

Some solved entries appear below for comparison.
{"columns": ["Compound smiles", "Measured endpoint", "Data value"],
 "data": [
  ["COc1ccc(-c2nc(-c3ccccc3)c(-c3ccccc3)[nH]2)cc1OC1CCCC1", "growth inhibition (GI)", "Active"],
  ["CCCCCCn1c(-c2ccc(OC)c(OC3CCCC3)c2)nc(-c2ccccc2)c1-c1ccccc1", "growth inhibition (GI)", "Active"],
  ["COc1ccc(-c2nc(-c3ccccc3)c(-c3ccccc3)n2C2CC2)cc1OC1CCCC1", "growth inhibition (GI)", "Active"],
  ["COc1ccc(-c2nc(-c3ccccn3)c(-c3ccccn3)n2CC(C)C)cc1OC1CCCC1", "growth inhibition (GI)", "Active"]
]}

Let's switch to this compound now.
[in] Please give the documented growth inhibition (GI) of "C#CCn1c(-c2ccc(OC)c(OC3CCCC3)c2)nc(-c2ccccc2)c1-c1ccccc1"
[out] Active
